Hello, the source for this data is ChEMBL document CHEMBL1938296, in case you need it.

- system_name: Glucocorticoid receptor (Homo sapiens, UniProt P04150)
- Sequence (P04150 whole entry): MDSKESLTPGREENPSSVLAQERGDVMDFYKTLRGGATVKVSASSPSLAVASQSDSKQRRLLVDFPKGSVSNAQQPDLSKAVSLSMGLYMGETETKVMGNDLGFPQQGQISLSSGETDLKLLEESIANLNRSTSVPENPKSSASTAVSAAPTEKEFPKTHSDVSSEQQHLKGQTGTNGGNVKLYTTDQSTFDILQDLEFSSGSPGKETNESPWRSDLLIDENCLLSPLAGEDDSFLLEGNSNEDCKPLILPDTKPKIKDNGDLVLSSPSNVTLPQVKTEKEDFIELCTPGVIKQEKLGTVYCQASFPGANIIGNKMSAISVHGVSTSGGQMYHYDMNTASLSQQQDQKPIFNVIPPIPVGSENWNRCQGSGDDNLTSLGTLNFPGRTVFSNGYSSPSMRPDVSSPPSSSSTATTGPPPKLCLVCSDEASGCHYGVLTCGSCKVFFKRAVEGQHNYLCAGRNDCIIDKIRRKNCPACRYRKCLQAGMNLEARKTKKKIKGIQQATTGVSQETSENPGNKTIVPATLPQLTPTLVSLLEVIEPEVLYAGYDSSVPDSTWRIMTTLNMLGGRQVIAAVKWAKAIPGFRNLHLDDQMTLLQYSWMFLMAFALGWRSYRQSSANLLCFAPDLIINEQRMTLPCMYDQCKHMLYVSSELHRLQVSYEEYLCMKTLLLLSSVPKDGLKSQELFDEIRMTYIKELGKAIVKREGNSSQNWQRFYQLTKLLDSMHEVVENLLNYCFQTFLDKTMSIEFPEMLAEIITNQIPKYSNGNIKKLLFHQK
- experiment_summary: Transactivation of glucocorticoid receptor in human HepG2 cells assessed as induction of TAT measuring degradation of tyrosine to p-hydroxy phenyl pyruvate
- test_context: read-out: IC50 (the source's name)
pEC50: −log10 of the molar value.
Note to self: values exactly at 7 are condition met. So pEC50 at or above 7 is condition met, below is condition not met.

| mol_smiles | category |
| --- | --- |
| C[C@]12C=CC(=O)C=C1CC[C@@H]1[C@@H]2[C@@H](O)C[C@@]2(C)[C@H]1CC[C@]2(O)C(=O)CSc1ccccn1 | condition not met |
| C[C@@H]1C[C@H]2[C@@H]3CCC4=CC(=O)C=C[C@]4(C)[C@H]3[C@@H](O)C[C@]2(C)[C@@]1(O)C(=O)CSc1nc2ccccc2s1 | condition not met |
| C[C@@H]1C[C@H]2[C@@H]3CCC4=CC(=O)C=C[C@]4(C)[C@H]3[C@@H](O)C[C@]2(C)[C@@]1(O)C(=O)CSc1nc2cccnc2s1 | condition not met |
| C[C@@H]1C[C@H]2[C@@H]3CCC4=CC(=O)C=C[C@]4(C)[C@H]3[C@@H](O)C[C@]2(C)[C@@]1(O)C(=O)CO | condition met |
| C[C@]12C=CC(=O)C=C1CC[C@@H]1[C@@H]2[C@@H](O)C[C@@]2(C)[C@H]1CC[C@]2(O)C(=O)CSc1ccc2ccccc2n1 | condition not met |

====

- system_name: Glucocorticoid receptor (Homo sapiens)
- experiment_summary: Transrepression activity at glucocorticoid receptor in human H292 cells assessed as inhibition of TNF-stimulated IL-8 production
- Format: cell-based
endpoint: IC50

| mol_smiles | system_name | endpoint | observed |
| --- | --- | --- | --- |
| C[C@]12C=CC(=O)C=C1CC[C@@H]1[C@@H]2[C@@H](O)C[C@@]2(C)[C@H]1CC[C@]2(O)C(=O)CSc1ccc2ccccc2n1 | Glucocorticoid receptor (Homo sapiens) | IC50 | 70.2 nM |
| C[C@@H]1C[C@H]2[C@@H]3CCC4=CC(=O)C=C[C@]4(C)[C@H]3[C@@H](O)C[C@]2(C)[C@@]1(O)C(=O)CSc1nc2ccccc2n1C | Glucocorticoid receptor (Homo sapiens) | IC50 | 69.3 nM |
| Cc1ccnc(SCC(=O)[C@@]2(O)CC[C@H]3[C@@H]4CCC5=CC(=O)C=C[C@]5(C)[C@H]4[C@@H](O)C[C@@]32C)n1 | Glucocorticoid receptor (Homo sapiens) | IC50 | 11.4 nM |
| C[C@@H]1C[C@H]2[C@@H]3CCC4=CC(=O)C=C[C@]4(C)[C@H]3[C@@H](O)C[C@]2(C)[C@@]1(O)C(=O)CSc1cnc2ccccc2n1 | Glucocorticoid receptor (Homo sapiens) | IC50 | 37.9 nM |
| C[C@@H]1C[C@H]2[C@@H]3CCC4=CC(=O)C=C[C@]4(C)[C@H]3[C@@H](O)C[C@]2(C)[C@@]1(O)C(=O)CSc1nc2ccccc2[nH]1 | Glucocorticoid receptor (Homo sapiens) | IC50 | 36 nM |
| C[C@]12C=CC(=O)C=C1CC[C@@H]1[C@@H]2[C@@H](O)C[C@@]2(C)[C@H]1CC[C@]2(O)C(=O)CSc1nc2ccccc2o1 | Glucocorticoid receptor (Homo sapiens) | IC50 | 13.5 nM |
| C[C@]12C=CC(=O)C=C1CC[C@@H]1[C@@H]2[C@@H](O)C[C@@]2(C)[C@H]1CC[C@]2(O)C(=O)CSc1nc2cccnc2s1 | Glucocorticoid receptor (Homo sapiens) | IC50 | 118 nM |
| C[C@@H]1C[C@H]2[C@@H]3CCC4=CC(=O)C=C[C@]4(C)[C@H]3[C@@H](O)C[C@]2(C)[C@@]1(O)C(=O)CSc1nnc(-c2ccccc2)o1 | Glucocorticoid receptor (Homo sapiens) | IC50 | 5.1 nM |
| C[C@@H]1C[C@H]2[C@@H]3CCC4=CC(=O)C=C[C@]4(C)[C@H]3[C@@H](O)C[C@]2(C)[C@@]1(O)C(=O)CSc1nccc2ccccc12 | Glucocorticoid receptor (Homo sapiens) | IC50 | 17.6 nM |
| C[C@]12C=CC(=O)C=C1CC[C@@H]1[C@@H]2[C@@H](O)C[C@@]2(C)[C@H]1CC[C@]2(O)C(=O)CSc1nc(-c2ccccc2)cs1 | Glucocorticoid receptor (Homo sapiens) | IC50 | 305 nM |
| C[C@@H]1C[C@H]2[C@@H]3CCC4=CC(=O)C=C[C@]4(C)[C@H]3[C@@H](O)C[C@]2(C)[C@@]1(O)C(=O)CSc1nc2cccnc2s1 | Glucocorticoid receptor (Homo sapiens) | IC50 | 7 nM |
| C[C@@H]1C[C@H]2[C@@H]3CCC4=CC(=O)C=C[C@]4(C)[C@H]3[C@@H](O)C[C@]2(C)[C@@]1(O)C(=O)CSc1nc2ccccc2o1 | Glucocorticoid receptor (Homo sapiens) | IC50 | 4.4 nM |

====

The compounds listed here are annotated with their log10(IC50).
- system_name: Glucocorticoid receptor (Homo sapiens, UniProt P04150)
- Sequence (P04150 whole entry): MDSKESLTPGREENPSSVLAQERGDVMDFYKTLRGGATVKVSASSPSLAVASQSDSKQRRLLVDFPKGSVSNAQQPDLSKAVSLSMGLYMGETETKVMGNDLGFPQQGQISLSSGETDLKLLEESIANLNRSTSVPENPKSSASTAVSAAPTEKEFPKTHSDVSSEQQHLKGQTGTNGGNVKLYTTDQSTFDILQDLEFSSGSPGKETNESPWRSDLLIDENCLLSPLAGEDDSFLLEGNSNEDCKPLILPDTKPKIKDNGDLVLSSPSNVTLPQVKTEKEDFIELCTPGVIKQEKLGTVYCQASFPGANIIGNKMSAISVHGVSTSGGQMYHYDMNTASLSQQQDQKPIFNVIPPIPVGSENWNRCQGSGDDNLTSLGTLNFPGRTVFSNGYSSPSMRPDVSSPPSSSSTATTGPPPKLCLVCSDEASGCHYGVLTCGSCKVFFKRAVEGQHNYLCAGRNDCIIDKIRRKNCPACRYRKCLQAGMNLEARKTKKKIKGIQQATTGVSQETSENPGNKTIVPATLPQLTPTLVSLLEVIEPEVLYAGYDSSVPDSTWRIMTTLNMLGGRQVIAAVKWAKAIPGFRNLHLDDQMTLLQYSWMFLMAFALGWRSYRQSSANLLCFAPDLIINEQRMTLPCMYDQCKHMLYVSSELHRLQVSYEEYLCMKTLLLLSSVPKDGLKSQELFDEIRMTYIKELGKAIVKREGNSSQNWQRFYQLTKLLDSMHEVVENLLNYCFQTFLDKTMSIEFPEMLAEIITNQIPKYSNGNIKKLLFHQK
- experiment_summary: Transrepression activity at glucocorticoid receptor in human H292 cells assessed as inhibition of TNF-stimulated IL-8 production
- Assay type: cell-based
endpoint: log10(IC50) (log10 of the value in µM)

| mol_smiles | log10(IC50) |
| --- | --- |
| C[C@]12C=CC(=O)C=C1CC[C@@H]1[C@@H]2[C@@H](O)C[C@@]2(C)[C@H]1CC[C@]2(O)C(=O)CSc1ncc2ccccc2n1 | -1.16 |
| CCn1c(SCC(=O)[C@@]2(O)CC[C@H]3[C@@H]4CCC5=CC(=O)C=C[C@]5(C)[C@H]4[C@@H](O)C[C@@]32C)nc2ccccc21 | -1.38 |
| C[C@@H]1C[C@H]2[C@@H]3CCC4=CC(=O)C=C[C@]4(C)[C@H]3[C@@H](O)C[C@]2(C)[C@@]1(O)C(=O)CSc1nc2ncccc2o1 | -2.22 |
| Cc1cccc(SCC(=O)[C@@]2(O)[C@H](C)C[C@H]3[C@@H]4CCC5=CC(=O)C=C[C@]5(C)[C@H]4[C@@H](O)C[C@@]32C)n1 | -2.77 |
| Cn1c(SCC(=O)[C@@]2(O)CC[C@H]3[C@@H]4CCC5=CC(=O)C=C[C@]5(C)[C@H]4[C@@H](O)C[C@@]32C)nc2ccccc21 | -1.33 |
| C[C@@H]1C[C@H]2[C@@H]3CCC4=CC(=O)C=C[C@]4(C)[C@H]3[C@@H](O)C[C@]2(C)[C@@]1(O)C(=O)CSc1ncnc2ccccc12 | -1.63 |
